study system: CBP (Homo sapiens (Human), UniProt Q92793)
Sequence (Q92793 1085-1192): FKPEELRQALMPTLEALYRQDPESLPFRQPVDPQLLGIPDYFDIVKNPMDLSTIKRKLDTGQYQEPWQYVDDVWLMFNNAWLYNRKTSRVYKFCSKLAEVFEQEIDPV
protocol text: HTRF biochemical assay for CBP activity (TR-FRET, bromodomain)
Assay type: binding
conditions: geometric mean, 10-point 3-fold dilution 33 μM to 1.7 nM, read-out: BROMO IC50 TRF TB CBP (μM gmean)

| smiles string | IC50 |
| --- | --- |
| COC(=O)N1CCc2ccc3c(nc(C4CCCCC4)n3CC[C@@H]3CCCC[C@H]3C(=O)O)c2C1 | 0.01 to 0.1 µM |
| COC(=O)N1CCc2ccc3c(nc([C@H]4CC[C@H](S(=O)(=O)NC(C)=O)CC4)n3[C@H](C)Cc3ccccc3)c2C1 | 0.1 to 1 µM |
| COC(=O)N1CCc2ccc3c(nc(-c4ccc(C(=O)O)c(OC)c4)n3[C@H](C)Cc3ccccc3)c2C1 | 0.1 to 1 µM |
| COC(=O)N1CCc2ccc3c(nc(C4CCCCC4)n3[C@H](Cc3ccccc3)C(=O)O)c2C1 | 0.01 to 0.1 µM |
| COC(=O)N1CCc2ccc3c(nc([C@H]4CC[C@H](C(=O)O)CC4)n3[C@@H](C)[C@H](O)c3ccccc3)c2C1 | 0.01 to 0.1 µM |
| COC(=O)N1CCc2ccc3c(nc(C4CCN(S(=O)(=O)NC(C)=O)CC4)n3[C@H](C)Cc3ccccc3)c2C1 | 1 to 1000 µM |
| COC(=O)N1CCc2ccc3c(nc(C4CCCCC4)n3C[C@H]3CCCC[C@H]3C(=O)O)c2C1 | 0.01 to 0.1 µM |
